target: recombinant human mPGES-1 (Homo sapiens (Human), UniProt O14684); test: mPGES-1 enzyme assay (HTRF detection of PGE2); assay type: biochemical; details: recombinant human mPGES-1 microsomes, PGH2 2 μM, 60 seconds; read-out: mPGES-1 inhibitory effect IC50 in the enzyme assay
Sequence (O14684 whole entry): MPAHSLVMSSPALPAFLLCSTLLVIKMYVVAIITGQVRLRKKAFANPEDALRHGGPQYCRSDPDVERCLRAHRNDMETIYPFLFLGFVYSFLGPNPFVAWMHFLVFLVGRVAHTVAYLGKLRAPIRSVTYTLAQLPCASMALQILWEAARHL
Assign IC50 to each entry below.
Give bare numbers, in nM.

Field: example entries. Status: answers known.
Cn1c(Nc2c(Cl)ccc(CNC(=O)C(C)(C)C)c2Cl)nc2cc(C(=O)Nc3ccc(F)c(Cl)c3)c(NCC(F)F)cc21 :: 3
Cn1c(Nc2c(Cl)ccc(CNC(=O)C(C)(C)C)c2Cl)nc2cc(C(=O)Nc3ccc(F)c(Cl)c3)c(N3CCC(C(F)(F)F)CC3)cc21 :: 2
CN(CC1(C)CC1)c1cc2c(cc1C(=O)N[C@H]1CC[C@H](C(F)(F)F)CC1)nc(Nc1c(Cl)ccc(CNC(=O)C(C)(C)C)c1Cl)n2C :: 1

Fill in IC50 for each of the 3 molecules listed.
1. Cn1c(Nc2c(Cl)ccc(CNC(=O)C(C)(C)C)c2Cl)nc2cc(C(=O)Nc3ccc(Cl)c(F)c3)c(N3CCC(C(F)(F)F)CC3)cc21
2. Cn1c(Nc2c(Cl)ccc(CNC(=O)C(C)(C)C(F)(F)F)c2Cl)nc2cc(C(=O)NC3CC(F)(F)C3)c(N3CCC(C(F)(F)F)CC3)cc21
3. Cn1c(Nc2c(Cl)ccc(CNC(=O)C(C)(C)C)c2Cl)nc2cc(C(=O)N[C@H]3CC[C@H](C(F)(F)F)CC3)c(N3C[C@H]4C[C@@H](C3)[C@H]4O)cc21

1
1.9
2

###

target: mPGES-1 in A549 cells (Homo sapiens (Human), UniProt O14684); assay: A549 cell-based assay (PGE2 formation, 50% human serum); details: IL-1β 5 ng/ml, 10 nM arachidonic acid, 20-24 h, read-out: mPGES-1 inhibitory effect IC50 in the cell assay
Sequence (O14684 whole entry): as above
measured.endpoint: pIC50
Numbers only, as −log10 of the molar value.

Field: example entries. Status: answers known.
Cn1ccnc1C(=O)NCc1ccc(Cl)c(Nc2nc3cc(C(=O)N[C@H]4CC[C@H](C(F)(F)F)CC4)c(N4CC5CC5C4)cc3n2C)c1Cl (stereo partly drawn) [Example 216] :: 7.57
Cn1c(Nc2c(Cl)ccc(CNC(=O)c3ccc(C#N)nc3)c2Cl)nc2cc(C(=O)N[C@H]3CC[C@H](C(F)(F)F)CC3)c(N3CC4CC4C3)cc21 (stereo partly drawn) [Example 212] :: 8.77
CC(C)(C)C(=O)NCc1ccc(Cl)c(Nc2nc3cc(C(=O)N[C@H]4CC[C@H](C(F)(F)F)CC4)c(N4CC5CC5C4)cc3n2C2(C(C)(C)O)CC2)c1Cl (stereo partly drawn) [Example 164] :: 8.15
Cn1c(Nc2c(Cl)ccc(CNC(=O)C(C)(C)C)c2Cl)nc2cc(C(=O)N[C@H]3CC[C@H](C(F)(F)F)CC3)c(NC3CC(F)(F)C3)cc21 [Example 4] :: 7.70

Now let's try a different one.
Entry under review: Cn1c(Nc2c(Cl)ccc(CNC(=O)C(C)(C)C)c2Cl)nc2cc(C(=O)N[C@H]3CC[C@H](C(F)(F)F)CC3)c(N3CC[C@@H](F)C3)c(F)c21 [Example 145] . Reported pIC50? 8.60

Ref: patent US8674113B2
